- Target: T1, human high affinity trimeric IL-2 receptor (CD25/CD122/CD132) (human, UniProt P01589 22-272; P14784 27-551; P31785 23-369)
- T1 sequence 1: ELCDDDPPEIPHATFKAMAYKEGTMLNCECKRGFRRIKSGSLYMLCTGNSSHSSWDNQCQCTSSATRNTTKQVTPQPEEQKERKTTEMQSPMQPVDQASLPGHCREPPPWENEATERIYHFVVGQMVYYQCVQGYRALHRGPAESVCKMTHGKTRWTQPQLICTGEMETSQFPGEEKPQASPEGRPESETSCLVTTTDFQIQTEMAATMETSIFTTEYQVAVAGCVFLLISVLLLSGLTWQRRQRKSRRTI
- T1 sequence 2: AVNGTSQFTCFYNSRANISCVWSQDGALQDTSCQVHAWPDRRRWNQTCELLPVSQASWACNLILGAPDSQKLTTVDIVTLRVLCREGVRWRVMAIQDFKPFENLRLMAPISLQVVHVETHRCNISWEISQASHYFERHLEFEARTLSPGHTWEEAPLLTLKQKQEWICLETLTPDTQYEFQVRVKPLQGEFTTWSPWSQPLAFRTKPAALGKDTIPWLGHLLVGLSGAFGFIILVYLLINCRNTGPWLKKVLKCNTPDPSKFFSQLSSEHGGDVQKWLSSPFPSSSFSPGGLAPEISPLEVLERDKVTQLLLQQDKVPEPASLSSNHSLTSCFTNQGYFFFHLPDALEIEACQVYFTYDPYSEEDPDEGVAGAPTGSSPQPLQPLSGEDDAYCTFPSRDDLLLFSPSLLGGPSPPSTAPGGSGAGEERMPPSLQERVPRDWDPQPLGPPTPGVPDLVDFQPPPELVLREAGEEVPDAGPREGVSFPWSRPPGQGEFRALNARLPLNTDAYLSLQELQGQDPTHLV
- T1 sequence 3: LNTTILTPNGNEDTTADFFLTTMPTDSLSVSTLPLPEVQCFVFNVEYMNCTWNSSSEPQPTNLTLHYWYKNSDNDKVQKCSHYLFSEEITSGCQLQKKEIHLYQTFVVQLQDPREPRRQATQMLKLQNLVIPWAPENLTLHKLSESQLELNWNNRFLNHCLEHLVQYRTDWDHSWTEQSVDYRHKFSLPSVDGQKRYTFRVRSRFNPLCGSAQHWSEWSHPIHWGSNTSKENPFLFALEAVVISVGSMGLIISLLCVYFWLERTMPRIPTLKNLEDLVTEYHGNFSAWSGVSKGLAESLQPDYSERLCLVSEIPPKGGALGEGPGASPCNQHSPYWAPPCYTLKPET
- Protocol description: cell-based or functional assay
Metric: pSTAT5 ratio YT CD25/YT, dilution factor 4, lower table
In your answer, state the number alone without any accompanying words.

Ask | Can you look up the measured pSTAT5 ratio YT CD25/YT, dilution factor 4, lower table of NEH (ligand) cytokine: APTSSSTKKTQLQLEHLNLDLEMILNGINNYKNPKLTRMLTFKFYMPKKATELKHLQCLEEELKPLEEVLNLAQSKNFHLRPRDLISNINVIVLELKGSETTFMCEYADETATIVEFLNRWITFCHSIISTLT for me?
Reply | 1.1

Ask | Follow-up entry: RMH (ligand) cytokine: APTSSSTKKTQLQLEHLRLDLMMILNGINNYKNPKLTRMLTFKFYMPKKATELKHLQCLEEELKPLEEVLNLAQSKNFHLRPRDLISNINVIVLELKGSETTFMCEYADETATIVEFLNRWITFCHSIISTLT
Reply | 0.8

Ask | Now this one: RTH (ligand) cytokine: APTSSSTKKTQLQLEHLRLDLTMILNGINNYKNPKLTRMLTFKFYMPKKATELKHLQCLEEELKPLEEVLNLAQSKNFHLRPRDLISNINVIVLELKGSETTFMCEYADETATIVEFLNRWITFCHSIISTLT
Reply | 1.9

Ask | Note, next up: DEH (ligand) cytokine: APTSSSTKKTQLQLEHLDLDLEMILNGINNYKNPKLTRMLTFKFYMPKKATELKHLQCLEEELKPLEEVLNLAQSKNFHLRPRDLISNINVIVLELKGSETTFMCEYADETATIVEFLNRWITFCHSIISTLT
Reply | 2

Source: patent US20210275641A1
